- System: A549/ATCC NSCLC
- assay.notes: NCI-60 one-dose screen, 48 h (100 = growth as untreated, 0 = no growth, -100 = all killed)
- details: 10 µM unless noted
Compounds without any hit were thinned out: in the full panel of roughly 83,000, 20% have a hit. Calls of active or inactive are those of the source. How the source made its calls: active means growth percent below 10; inactive means the rest.
Measured growth by item

compound: CCCCC(=O)OC1CCCCC1C (centres undefined)
experimental.system: A549/ATCC NSCLC
growth: 72.3% (inactive)

compound: CCCCC[C@H]1CC=C2C(=O)C(Cl)=C[C@@H]2CC=CCCCC(=O)O[C@@H](CCCCC)CC=C2C(=O)C(Cl)=C[C@@H]2CC=CCCCC(=O)O[C@@H](CCCCC)CC=C2C(=O)C(Cl)=C[C@@H]2CC=CCCCC(=O)O1
experimental.system: A549/ATCC NSCLC
growth: 90.6% [8 µM] (inactive)

compound: COc1cc2c(cc1-c1c(C)noc1C)ncc1nc(C3CCC(F)(F)CC3)n([C@@H](C)COC(F)F)c12
experimental.system: A549/ATCC NSCLC
growth: 37.5% (inactive)

[Q] Tell me the measured growth of Cc1ccc2oc(=O)cc(-c3sc(N4CCCCC4)nc3-c3ccccc3)c2c1 , please.
[A] 99.6% (inactive)

----------
- Tested on: EKVX NSCLC
- assay.notes: NCI-60 one-dose screen, 48 h (100 = growth as untreated, 0 = no growth, -100 = all killed)
- details: 10 µM unless noted
Compounds without any hit were thinned out: in the full panel of roughly 83,000, 20% have a hit.
endpoint.name: growth (%)
Reply numerically in %, unit not repeated.

Worked set:
molecule.smiles: Cc1cc(N(CCCNc2ccnc3cc(Cl)ccc23)Cc2ccco2)nc(N2CCOCC2)n1
experimental.system: EKVX NSCLC
growth, %: 67.6
//
molecule.smiles: C[C@@H](C(=O)O)c1ccc2c3cc(Cl)ccc3n(Cc3cc(=O)oc4ccc(Cl)cc34)c2c1
experimental.system: EKVX NSCLC
growth, %: 97
//
molecule.smiles: C=C1C(=O)O[C@H]2[C@H]1CC/C(COC(=O)N[C@H](Cc1c[nH]c3ccccc13)C(=O)OC)=C\CC[C@@]1(C)O[C@@H]21
experimental.system: EKVX NSCLC
growth, %: 63.6
//
molecule.smiles: CCN(CC)CCCCCCNc1ccnc2cc(Cl)ccc12
experimental.system: EKVX NSCLC
growth, %: 76.5
//
molecule.smiles: N#CCCCCCn1c2ccccc2c2c3c(c4c5ccccc5n(CCCCCC#N)c4c21)C(=O)N(O)C3=O
experimental.system: EKVX NSCLC
growth, %: 95

[Q] For the compound O=C(CCCCCn1c2ccccc2c2c3c(c4c5ccccc5[nH]c4c21)C(=O)N(O)C3=O)N1CCOCC1 , what growth is on record?
[A] 77.7

[Q] Any idea what its growth is? The compound is O=C1/C(=C\C(Cl)=C/c2ccc([N+](=O)[O-])cc2)SC(=S)N1CCc1ccc(O)cc1
[A] -43

[Q] Entry C=C1C(=O)O[C@H]2[C@H]1CC/C(COC(=O)NCc1c[nH]c3ccccc13)=C\CC[C@@]1(C)O[C@@H]21 has what growth?
[A] 84.2

----------
Documented growth across a set of compounds
- System: K-562 leukemia
- assay.notes: NCI-60 one-dose screen, 48 h (100 = growth as untreated, 0 = no growth, -100 = all killed)
- details: 10 µM unless noted
This is part of a sample that, as a whole, favours compounds with a hit. Of some 83,000 tested, about 20% had one in any assay.
Report as a plain number; the unit % is understood.

Worked cases, growth given:
compound: CCCCN1CCCCn2c1nc1c2c(=O)n(C)c(=O)n1C
recorded.result: 91.2

compound: CC1c2ccccc2N(S(=O)(=O)c2ccccc2)C1C (stereo not given)
recorded.result: 34.1

compound: O=C1c2ccccc2NC(c2cn(-c3ccccc3)nc2-c2cccnc2)N1Cc1ccccc1 (stereo not given)
recorded.result: 96.8

[Q] May I ask what growth has been recorded for COc1ccc2[nH]c(-c3ccc(Cl)cc3)cc(=O)c2c1 ?
[A] 97.4

[Q] Would you mind telling me what growth value was observed for N=c1ccc2nc3c(cc(N)c4ccccc43)oc-2c1 ?
[A] -67.3

[Q] Query: growth; subject: CC(=O)OC[C@]12CC[C@@H](/C(C)=N/O)[C@@H]1[C@H]1CC[C@@H]3[C@@]4(C)CCCNC(C)(C)[C@@H]4CC[C@@]3(C)[C@]1(C)CC2
[A] 41.3

----------
- System: SF-539 CNS
- assay.notes: NCI-60 one-dose screen, 48 h (100 = growth as untreated, 0 = no growth, -100 = all killed)
- details: 10 µM unless noted
- Description: Cells are grown in 96 well plates and exposed to the test compound for 48 hours. Compounds are tested at a single concentration, which is 10^-5 M for most compounds. The reported endpoint is percent growth (GI% or GIPRCNT), where numbers from 0 - 100% represent growth inhibition, and numbers from -100% - 0 represent cell death. For example, a value of 40 represents 60% growth inhibition. A value of 0 means no net growth occurred over the course of the experiment. […]
This is part of a sample that, as a whole, favours compounds with a hit. Of some 83,000 tested, about 20% had one in any assay. Active and inactive are the calls of the source. How the source made its calls: active means growth percent below 10; inactive means the rest.
endpoint.name: growth

molecule: Oc1ccc(Nc2ccccc2)cc1
experimental.system: SF-539 CNS
endpoint.name: growth
recorded.result: 64.5% (inactive)
//
molecule: NNC(=O)c1nc2ccccc2[nH]1
experimental.system: SF-539 CNS
endpoint.name: growth
recorded.result: 103% (inactive)
//
molecule: Cc1ccc(N(CC(=O)Nc2ccc(S(=O)(=O)N3CCC(N4CCCC4)CC3)cc2)S(=O)(=O)c2ccc(Cl)cc2)cc1
experimental.system: SF-539 CNS
endpoint.name: growth
recorded.result: -89.7% (active)

[Q] What growth value was documented for this molecule, Cc1[c-]onc1C.Cc1[c-]onc1C.[Ag].[Ag].[NH-]S(=O)(=O)c1ccc(N=Nc2cc(N=Nc3ccc(S([NH-])(=O)=O)cc3)c3c(NC(=O)C(Cl)Cl)cccc3c2OC(=O)C(Cl)Cl)cc1 ?
[A] 92.8% (inactive)

[Q] Sample Cn1cc(-c2nc(-c3c[nH]c4ncccc34)cs2)c2ccccc21 — what was its growth?
[A] 99.9% (inactive)

[Q] Could you share which growth value was measured for C=C(C)[C@@H]1CC[C@]2(C(=O)N3CCN(CC)CC3)CC[C@]3(C)[C@H](CC[C@@H]4[C@@](C)(CCC(=O)N5CCN(CC)CC5)[C@H](C(=C)C)CC[C@]43C)[C@@H]12 ?
[A] 66% (inactive)

[Q] Quick one: growth of COc1ccc(-c2cc(/C=C/C(=O)c3ccc(N)cc3)[nH]n2)cc1 ?
[A] 1.33% (active)

[Q] Entry under review: CN(C)c1cccc2[nH]c(-c3[nH]ncc3Nc3ccnc(N)n3)nc12 . Reported growth?
[A] -83.8% (active)

[Q] Requested read-out: growth. Entry: CCN(CC)CCCCCNc1cc(OC(=O)c2ccccc2)cc2cccnc12
[A] 150% (inactive)

[Q] What value of measured growth is listed for CN1CCN(CCOc2ccc(-c3cnc4c(-c5ccccc5F)cnn4c3)cc2)CC1 ?
[A] 51.3% (inactive)

[Q] So what's the measured growth for this one? COc1cccc(NC(=O)c2sc3nc4c(cc3c2N)C(=O)CCC4)c1
[A] -7.27% (active)

[Q] Reported growth, molecule CCCCC[C@H]1C/C=C2/C(=O)C(Cl)=C[C@@H]2C/C=C\CCCC(=O)O[C@@H](CCCCC)C/C=C2/C(=O)C(Cl)=C[C@@H]2C/C=C\CCCC(=O)O1 : ____
[A] -11.3% (active)

[Q] growth for O=c1c(CNc2ccc(S(=O)(=O)Nc3nccs3)cc2)coc2ccccc12 ?
[A] 107% (inactive)

----------
List of growth values.
- Test system: SNB-19 CNS
- assay.notes: NCI-60 one-dose screen, 48 h (100 = growth as untreated, 0 = no growth, -100 = all killed)
- details: 10 µM unless noted
This is part of a sample that, as a whole, favours compounds with a hit. Of some 83,000 tested, about 20% had one in any assay.
Please reply with the bare figure in % and do not write the unit itself.

Some solved entries appear below for comparison.
compound: O=C(O)/C(=C/c1ccc(O)cc1)c1ccccc1
growth, %: 99.7
--
compound: COc1cc2nc(Cl)nc(Nc3cccc(C(=O)/C=C/c4ccccc4)c3)c2cc1OC
growth, %: 32.9

[Q] GET /values?readout=growth&item= O=C(N/N=C\c1ccccc1O)C1CC1
[A] 101

[Q] Need growth, item CC(C)(C)c1[nH]nc2c1C(c1cc3ccccc3[nH]c1=O)Nc1cc(C(=O)OCc3ccccc3)ccc1N2 (stereo not given)
[A] 61.7

[Q] Given C/C(=N\Nc1cc(C)c2cc(C)ccc2n1)c1ccccn1 , state its recorded growth.
[A] 20.6

[Q] For the compound Cn1cc(-c2csc(-c3cn(C(=O)OC(C)(C)C)c4ccc(Br)cc34)n2)c2cccnc21 , what growth is on record?
[A] 93.2

[Q] Consider the compound shown here: C=C1CC[C@@H](C(=O)OC)Cc2nc(C)ccc21 What is its recorded growth?
[A] 97.1

[Q] What value of growth has been recorded for this entry: COC1=C(Br)C(=O)C(OC)=C(Br)C1=O
[A] 95.8

[Q] Look at this compound and give its reported growth. Cc1ccc2[nH]cc(-c3nc(-c4cn(C)c5ncccc45)cs3)c2c1
[A] 109

[Q] Requested field: growth. Item: Cc1nc([P+](c2ccccc2)(c2ccccc2)c2ccccc2)c(Sc2sc(-c3ccccc3)nc2[P+](c2ccccc2)(c2ccccc2)c2ccccc2)o1
[A] 16.2
